Tested on: MDA-MB-435 melanoma
Measurement Protocol: NCI-60 one-dose screen, 48 h (100 = growth as untreated, 0 = no growth, -100 = all killed)
Condition Notes: 10 µM unless noted
About 83,000 compounds went through this panel and 20% of them were active in at least one assay; those are over-represented in the sample as a whole.
Measured Parameter: growth (%)
Answer format: numeric, % implied, no suffix.

Reference set (4 entries):
>>> observed("COc1cc(/C=C2\\COc3ccc(O)cc3C2=O)cc(OC)c1")
20.1
>>> observed("COc1cc(/C=C2\\COc3ccc(O)c(O)c3C2=O)cc(OC)c1")
0.577
>>> observed("Nc1ccc(C2=NN(c3ccccc3)C(c3ccc(Cl)cc3)C2)cc1 (stereo not given)")
49.9
>>> observed("COc1ccc(OC)c2c1[nH]c(=O)c1c3ccccc3cn21")
-97.9

// query Using the record for COc1ccc(COC(C)=O)cc1 , report its growth.
// result 111

// query Using the record for CN(C)c1ccc2c(c1)/C(=N/O)c1ccccc1-2 , report its growth.
// result -8.86
